Below is a list of entries, each paired with its recorded Ki value.
# TARGET_UNDER_TEST: PIM1 (Homo sapiens (Human), UniProt P11309)
# Sequence (P11309 whole entry): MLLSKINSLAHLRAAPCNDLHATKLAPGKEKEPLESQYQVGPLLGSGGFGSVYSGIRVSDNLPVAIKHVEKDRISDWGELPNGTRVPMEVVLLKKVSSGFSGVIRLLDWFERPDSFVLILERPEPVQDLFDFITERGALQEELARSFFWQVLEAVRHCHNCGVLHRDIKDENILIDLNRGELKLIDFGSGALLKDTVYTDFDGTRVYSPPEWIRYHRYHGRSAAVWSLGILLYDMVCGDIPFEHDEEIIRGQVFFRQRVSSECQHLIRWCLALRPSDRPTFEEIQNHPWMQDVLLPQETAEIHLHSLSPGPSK
QUANTITY_KIND: Ki (nM)

MOLECULE	RECORDED_NUMBER
CCn1ncc(NC(=O)c2nc(-c3c(F)cccc3F)sc2N)c1N1CCC(N)C(OC)CC1 (single isomer, unassigned) [Example 406]	0.133
Nc1sc(-c2c(F)cccc2F)nc1C(=O)Nc1cnn(CC(F)F)c1N1CC[C@H](N)CC(F)(F)C1 (single isomer, unassigned)	0.01
Cn1ncc(NC(=O)c2nc(-c3c(F)cccc3F)sc2N)c1N1CCC[C@H](NCC2(C)COC2)CC1	0.295
